# targetDesc: 5-hydroxytryptamine receptor 1A (Homo sapiens) (UniProt P08908)
# Sequence (P08908 whole entry): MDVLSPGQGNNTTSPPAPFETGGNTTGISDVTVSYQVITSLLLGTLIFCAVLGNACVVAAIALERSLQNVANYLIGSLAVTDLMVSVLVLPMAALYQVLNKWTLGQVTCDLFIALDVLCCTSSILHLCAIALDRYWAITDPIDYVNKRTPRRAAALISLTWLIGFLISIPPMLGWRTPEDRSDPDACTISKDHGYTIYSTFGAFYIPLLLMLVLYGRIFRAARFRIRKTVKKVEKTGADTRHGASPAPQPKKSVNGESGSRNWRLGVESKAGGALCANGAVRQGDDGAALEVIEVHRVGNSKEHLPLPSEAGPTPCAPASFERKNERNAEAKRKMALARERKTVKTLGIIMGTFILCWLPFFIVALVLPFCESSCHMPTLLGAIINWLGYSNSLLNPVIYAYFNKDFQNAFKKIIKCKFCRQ
# measurementNotes: Agonist activity at human recombinant 5HT1A receptor expressed in HeLa cells preincubated for 20 mins by [35S]GTPgammaS binding assay relative to 8-OH-DPAT
# Type: functional, cell-based
// Emax lookup, one value per entry
Your answer should be a plain number; it is taken to be in %.

O[C@@H]1[C@H](CNCCOc2ccccc2)CCC1(c1ccccc1)c1ccccc1 (relative stereo) | 46.5

Param item: COc1ccccc1OCCNCC1CCC(c2ccccc2)(c2ccccc2)C1=O (stereo unspecified) ; param system: 5-hydroxytryptamine receptor 1A (Homo sapiens) (UniProt P08908); output Emax: 39.4

Reported 5-hydroxytryptamine receptor 1A (Homo sapiens) (UniProt P08908) Emax for item COc1ccccc1N1CCN(C[C@H]2CCC(c3ccccc3)(c3ccccc3)[C@@H]2O)CC1 was 37.3

====

# targetDesc: Alpha-1A adrenergic receptor (Rattus norvegicus)
# Sequence (whole entry): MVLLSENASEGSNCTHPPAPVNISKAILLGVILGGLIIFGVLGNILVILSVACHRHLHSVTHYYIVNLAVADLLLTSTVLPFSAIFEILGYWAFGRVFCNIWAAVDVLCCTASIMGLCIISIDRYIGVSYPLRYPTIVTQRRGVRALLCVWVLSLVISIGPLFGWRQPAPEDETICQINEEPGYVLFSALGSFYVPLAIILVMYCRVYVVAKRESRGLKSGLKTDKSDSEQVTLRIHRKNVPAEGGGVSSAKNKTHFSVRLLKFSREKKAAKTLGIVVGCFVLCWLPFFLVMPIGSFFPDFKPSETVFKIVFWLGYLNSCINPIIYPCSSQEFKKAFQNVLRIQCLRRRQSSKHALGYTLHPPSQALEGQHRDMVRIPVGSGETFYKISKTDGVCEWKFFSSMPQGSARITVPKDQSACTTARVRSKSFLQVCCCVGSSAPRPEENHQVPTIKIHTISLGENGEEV
# measurementNotes: Antagonist activity at alpha1A adrenoceptor in Wistar rat prostatic vas deferens assessed as inhibition of (-)-noradrenalilne-induced contraction after 30 mins
# Type: functional, tissue-based
Quick rule for you: pKb at 6 or higher means fulfilled, lower means not fulfilled.

Please review the following examples before continuing.
O[C@@H]1[C@@H](CNCCOc2ccccc2)CCC1(c1ccccc1)c1ccccc1 (relative stereo) | not fulfilled
c1ccc(OCCNCC2CCC(c3ccccc3)(c3ccccc3)O2)cc1 (centres undefined) | fulfilled
COc1ccccc1N1CCN(C[C@H]2CCC(c3ccccc3)(c3ccccc3)[C@H]2O)CC1 (relative stereo) | not fulfilled
COc1ccccc1OCCNCC1CCC(c2ccccc2)(c2ccccc2)O1 (centres undefined) | fulfilled
O=C1C(CNCCOc2ccccc2)CCC1(c1ccccc1)c1ccccc1 (centres undefined) | not fulfilled

Hello, I need to know if COc1ccccc1OCCNC[C@H]1CCC(c2ccccc2)(c2ccccc2)[C@@H]1O (relative stereo) has measured pKb not below 6. Thanks!
fulfilled

Tell me whether pKb is at least 6 here: COc1ccccc1N1CCN(CC2CCC(c3ccccc3)(c3ccccc3)O2)CC1 (centres undefined)
fulfilled

Quick check, pKb >= 6? COc1ccccc1N1CCN(CC2COC(c3ccccc3)(c3ccccc3)O2)CC1 (centres undefined)
fulfilled

====

# targetDesc: Alpha-1A adrenergic receptor (Rattus norvegicus)
# measurementNotes: Antagonist activity at alpha1A adrenoceptor in Wistar rat prostatic vas deferens assessed as inhibition of (-)-noradrenalilne-induced contraction after 30 mins
# Format: functional, tissue-based
pKb for assorted compounds
Reply with the value as a number alone.

compound COc1ccccc1N1CCN(C[C@H]2CCC(c3ccccc3)(c3ccccc3)[C@@H]2O)CC1 , pKb observed: 6.39

====

Entries and their pD2 values follow.
# targetDesc: 5-hydroxytryptamine receptor 1A (Homo sapiens) (UniProt P08908)
# reportedConditions: HeLa
// return a plain number; no unit text

COc1ccccc1OCCNCC1CCC(c2ccccc2)(c2ccccc2)C1=O (configuration not stated) | 8.37
O[C@@H]1[C@H](CNCCOc2ccccc2)CCC1(c1ccccc1)c1ccccc1 (relative stereo) | 7.81
COc1ccccc1N1CCN(C[C@H]2CCC(c3ccccc3)(c3ccccc3)[C@H]2O)CC1 (relative stereo) | 9.03
c1ccc(OCCNCC2COC(c3ccccc3)(c3ccccc3)O2)cc1 (configuration not stated) | 8.8

Notebook: COc1ccccc1N1CCN(CCN2C(=O)CC3(CCCC3)CC2=O)CC1 , pD2 read as 9.27

The recorded pD2 for O[C@@H]1[C@@H](CNCCOc2ccccc2)CCC1(c1ccccc1)c1ccccc1 (relative stereo) is 7.94

====

Record set of Ki for target or system Alpha-1B adrenergic receptor (Homo sapiens, UniProt P35368).
Express the result in nM but write the number alone.

See these solved cases before continuing.
COc1ccccc1N1CCN(C[C@H]2CCC(c3ccccc3)(c3ccccc3)[C@H]2O)CC1 (relative stereo) | 166
COc1ccccc1N1CCN(CC2COC(c3ccccc3)(c3ccccc3)O2)CC1 (configuration not stated) | 6.76

Considering COc1ccccc1OCCNCC1CCC(c2ccccc2)(c2ccccc2)O1 (configuration not stated) , its Ki with Alpha-1B adrenergic receptor (Homo sapiens, UniProt P35368) was recorded as 39.8

Form field, Ki with Alpha-1B adrenergic receptor (Homo sapiens, UniProt P35368), item COc1ccccc1N1CCN(CC2CCC(c3ccccc3)(c3ccccc3)C2=O)CC1 (configuration not stated) : 141

Lab note: compound COc1ccccc1OCCNC[C@H]1CCC(c2ccccc2)(c2ccccc2)[C@@H]1O (relative stereo) tested on Alpha-1B adrenergic receptor (Homo sapiens, UniProt P35368); recorded Ki was 74.1

====

Listed below: pKb values for each entry.
# targetDesc: Alpha-1B adrenergic receptor (Rattus norvegicus) (UniProt P15823)
# Sequence (P15823 whole entry): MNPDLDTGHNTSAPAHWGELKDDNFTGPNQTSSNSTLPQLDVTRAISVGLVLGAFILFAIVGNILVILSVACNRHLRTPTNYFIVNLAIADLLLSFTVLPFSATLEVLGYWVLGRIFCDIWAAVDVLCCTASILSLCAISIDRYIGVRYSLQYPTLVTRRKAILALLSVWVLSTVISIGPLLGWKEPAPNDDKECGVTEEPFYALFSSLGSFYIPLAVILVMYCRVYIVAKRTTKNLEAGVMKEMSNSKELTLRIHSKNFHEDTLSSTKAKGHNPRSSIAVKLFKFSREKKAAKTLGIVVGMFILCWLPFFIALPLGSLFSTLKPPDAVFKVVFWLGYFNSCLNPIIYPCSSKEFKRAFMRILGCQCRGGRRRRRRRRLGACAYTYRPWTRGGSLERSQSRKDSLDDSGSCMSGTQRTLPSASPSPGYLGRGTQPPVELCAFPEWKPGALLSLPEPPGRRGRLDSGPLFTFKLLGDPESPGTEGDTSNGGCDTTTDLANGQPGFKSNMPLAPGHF
# measurementNotes: Antagonist activity at Alpha-1B receptor in Wistar rat spleen assessed as inhibition of (-)-phenylephrine-induced contraction after 30 mins
# Format: functional, tissue-based
The reply should be a number, written without any unit.

response.value for COc1ccccc1OCCNC[C@H]1CCC(c2ccccc2)(c2ccccc2)[C@@H]1O (relative stereo) (field: pKb) = 7.7

Reported pKb for c1ccc(OCCNCC2CCC(c3ccccc3)(c3ccccc3)O2)cc1 (stereo not given) was 6.2

Field pKb (entry O[C@@H]1[C@@H](CNCCOc2ccccc2)CCC1(c1ccccc1)c1ccccc1 (relative stereo) ) reads 6.67

====

# targetDesc: 5-hydroxytryptamine receptor 1A (Homo sapiens)
# Sequence (P08908 whole entry): as the sequence (P08908 whole entry) above
recordedEndpoint: pKi
API: returns pKi as number; meaning -log10 of concentration in mol/L.

COc1ccccc1N1CCN(C[C@H]2CCC(c3ccccc3)(c3ccccc3)[C@@H]2O)CC1 | 9.10

# compound COc1ccccc1OCCNC[C@H]1CCC(c2ccccc2)(c2ccccc2)[C@@H]1O (relative stereo) ; its pKi = 9.49

Field pKi (entry O=C1C(CNCCOc2ccccc2)CCC1(c1ccccc1)c1ccccc1 (stereo not given) ) reads 7.98

So for COc1ccccc1N1CCN(CC2CCC(c3ccccc3)(c3ccccc3)C2=O)CC1 (stereo not given) , the logged pKi turned out to be 8.46

pKi for c1ccc(OCCNCC2CCC(c3ccccc3)(c3ccccc3)O2)cc1 (stereo not given) is 8.70

====

# targetDesc: Alpha-1A adrenergic receptor (Homo sapiens, UniProt P35348)
# Sequence (P35348 whole entry): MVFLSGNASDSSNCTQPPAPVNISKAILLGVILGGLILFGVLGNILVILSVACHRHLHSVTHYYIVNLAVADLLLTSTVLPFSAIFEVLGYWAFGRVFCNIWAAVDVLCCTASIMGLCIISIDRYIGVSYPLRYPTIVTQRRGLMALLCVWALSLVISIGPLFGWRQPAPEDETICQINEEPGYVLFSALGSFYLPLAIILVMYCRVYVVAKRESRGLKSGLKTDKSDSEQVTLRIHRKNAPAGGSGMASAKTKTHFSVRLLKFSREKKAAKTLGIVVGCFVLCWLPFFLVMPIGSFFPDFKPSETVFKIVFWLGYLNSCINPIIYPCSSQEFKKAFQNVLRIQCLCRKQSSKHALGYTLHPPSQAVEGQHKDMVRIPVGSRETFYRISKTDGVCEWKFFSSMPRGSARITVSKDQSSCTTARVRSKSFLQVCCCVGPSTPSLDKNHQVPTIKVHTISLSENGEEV
Binary label based on Ki with cut-off 40 nM: below gives TRUE, not below gives FALSE.

Some solved cases for reference:
O[C@@H]1[C@H](CNCCOc2ccccc2)CCC1(c1ccccc1)c1ccccc1 (relative stereo) | FALSE
COc1ccccc1OCCNCC1CCC(c2ccccc2)(c2ccccc2)O1 (configuration not stated) | TRUE
COc1ccccc1OCCNC[C@H]1CCC(c2ccccc2)(c2ccccc2)[C@@H]1O (relative stereo) | FALSE
COc1ccccc1N1CCN(CC2COC(c3ccccc3)(c3ccccc3)O2)CC1 (configuration not stated) | TRUE

# check: Ki < 40 nM for c1ccc(OCCNCC2CCC(c3ccccc3)(c3ccccc3)O2)cc1 (configuration not stated)
FALSE

====

In this section, each of the molecules is paired with its reported pKb.
# targetDesc: UniProtKB P23944
# Sequence (P23944 whole entry): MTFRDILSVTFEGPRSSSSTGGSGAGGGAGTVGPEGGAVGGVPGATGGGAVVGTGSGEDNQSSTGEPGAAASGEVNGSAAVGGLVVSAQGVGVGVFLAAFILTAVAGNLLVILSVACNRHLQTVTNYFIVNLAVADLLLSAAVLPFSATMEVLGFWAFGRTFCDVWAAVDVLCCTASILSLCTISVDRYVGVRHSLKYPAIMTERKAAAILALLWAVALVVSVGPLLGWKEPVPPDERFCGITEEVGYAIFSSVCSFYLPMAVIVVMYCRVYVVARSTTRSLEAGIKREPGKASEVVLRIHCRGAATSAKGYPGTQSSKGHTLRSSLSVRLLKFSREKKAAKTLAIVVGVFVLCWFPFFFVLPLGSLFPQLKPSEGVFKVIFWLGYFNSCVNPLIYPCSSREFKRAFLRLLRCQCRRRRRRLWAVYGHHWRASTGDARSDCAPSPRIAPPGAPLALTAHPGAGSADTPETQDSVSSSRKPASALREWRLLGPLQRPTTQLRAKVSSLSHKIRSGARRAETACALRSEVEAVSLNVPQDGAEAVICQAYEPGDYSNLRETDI
# measurementNotes: Antagonist activity at Alpha-1D adrenoceptor in Wistar rat endothelium denuded thoracic aorta assessed as inhibition of (-)-noradrenalilne-induced contraction after 30 mins
# Type: functional, tissue-based
Reply briefly: the number, and no unit.

COc1ccccc1N1CCN(CC2CCC(c3ccccc3)(c3ccccc3)C2=O)CC1 (centres undefined) | 6.43

// pKb (UniProtKB P23944) for c1ccc(OCCNCC2COC(c3ccccc3)(c3ccccc3)O2)cc1 (centres undefined) = 8.37

Record for COc1ccccc1OCCNCC1COC(c2ccccc2)(c2ccccc2)O1 (centres undefined) under target or system UniProtKB P23944: pKb reported as 8.65

====

# targetDesc: 5-hydroxytryptamine receptor 1A (Homo sapiens) (UniProt P08908)
# measurementNotes: Agonist activity at human recombinant 5HT1A receptor expressed in HeLa cells preincubated for 20 mins by [35S]GTPgammaS binding assay relative to 8-OH-DPAT
# Assay type: functional, cell-based
Rule: Emax under 30% gives f, otherwise t.

O=C1C(CNCCOc2ccccc2)CCC1(c1ccccc1)c1ccccc1 (stereo not drawn) | f
COc1ccccc1OCCNCC1CCC(c2ccccc2)(c2ccccc2)O1 (stereo not drawn) | t
COc1ccccc1N1CCN(CC2COC(c3ccccc3)(c3ccccc3)O2)CC1 (stereo not drawn) | f
c1ccc(OCCNCC2COC(c3ccccc3)(c3ccccc3)O2)cc1 (stereo not drawn) | f
COc1ccccc1OCCNC[C@H]1CCC(c2ccccc2)(c2ccccc2)[C@@H]1O (relative stereo) | t

Hi, just wondering whether COc1ccccc1OCCNCC1COC(c2ccccc2)(c2ccccc2)O1 (stereo not drawn) shows Emax of 30% or higher.
t

Entry COc1ccccc1N1CCN(C[C@H]2CCC(c3ccccc3)(c3ccccc3)[C@H]2O)CC1 (relative stereo) : is its Emax no less than 30%?
t

Test whether the compound O[C@@H]1[C@@H](CNCCOc2ccccc2)CCC1(c1ccccc1)c1ccccc1 (relative stereo) records Emax of 30% or higher.
t
